// values below are reported Kd
subject of test: C-CBL (46-435) (Homo sapiens)
Construct: N-terminal biotinylated WT CBL-B (36-427) and C-CBL (46-435) were captured on a streptavidin (SA) coated sensor chip
Sequence (P22681 46-435): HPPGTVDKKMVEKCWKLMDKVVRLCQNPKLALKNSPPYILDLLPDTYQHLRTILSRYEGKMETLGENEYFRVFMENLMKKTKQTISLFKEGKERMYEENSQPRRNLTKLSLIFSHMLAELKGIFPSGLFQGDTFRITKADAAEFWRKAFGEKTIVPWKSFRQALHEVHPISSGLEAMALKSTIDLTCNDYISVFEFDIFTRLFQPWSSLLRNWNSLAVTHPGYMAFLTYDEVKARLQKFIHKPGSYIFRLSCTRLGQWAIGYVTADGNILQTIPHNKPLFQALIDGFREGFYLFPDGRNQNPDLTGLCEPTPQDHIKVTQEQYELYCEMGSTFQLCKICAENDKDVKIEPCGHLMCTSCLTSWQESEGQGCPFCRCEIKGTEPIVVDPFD
assay notes: Surface Plasmon Resonance (SPR) assay, binding affinity and kinetics, C-CBL
test conditions: SPR at 10° C., biotinylated C-CBL (46-435) on streptavidin chip; geometric mean; read-out: C-CBL SPR Kd (nM) GMean
Protocol: Surface Plasmon Resonance (SPR) Assay The purpose of the SPR assay is to evaluate the binding affinity and kinetics of the compound of disclosure binding to CBL-B and C-CBL. The binding affinity and kinetics of compound binding to CBL-B and C-CBL were measured by Surface Plasmon Resonance (SPR) using either Biacore S200, 8K or 8K+ (Cytiva, Marlborough, MA) instruments. […] Compound binding kinetics were measured in either multi-cycle or single-cycle kinetic format. […]
quantity measured: Kd

[[record]]
compound = "C[C@@H](c1nc(C(F)(F)F)cc2c(-c3cccc(C4(Cc5nncn5C)COC4)c3)n[nH]c12)N1CC(F)C1 (single isomer, unassigned)"
result = "80.2 nM"

[[record]]
compound = "C[C@H]1CN(Cc2nc(C(F)(F)F)cc3c(-c4cccc(C5(Cc6nncn6C)COC5)c4)n[nH]c23)CCO1"
result = "54.1 nM"

[[record]]
compound = "CC(CN)c1nc(C(F)(F)F)cc2c(-c3cccc(C4(Cc5nncn5C)COC4)c3)n[nH]c12 (single isomer, unassigned) [Example K6]"
result = "125 nM"

[[record]]
compound = "CN(C)c1nc(C(F)(F)F)cc2c(-c3cccc(C4(Cc5nncn5C)COC4)c3)n[nH]c12"
result = "244 nM"

[[record]]
compound = "CNCc1nc(C(F)(F)F)cc2c(-c3cccc(C4(Cc5nncn5C)COC4)c3)n[nH]c12"
result = "124 nM"

[[record]]
compound = "C[C@H](N[C@H]1CCC(F)(F)C1)c1nc(C(F)(F)F)cc2c(-c3cccc(C4(Cc5nncn5C)COC4)c3)n[nH]c12 (single isomer, unassigned)"
result = "1.8 nM"

[[record]]
compound = "CCNC(C)c1nc(C(F)(F)F)cc2c(-c3cccc(C4(Cc5nncn5C)COC4)c3)n[nH]c12 (single isomer, unassigned) [Example C84]"
result = "99 nM"

[[record]]
compound = "CC(C)NC(C)c1nc(C(F)(F)F)cc2c(-c3cccc(C4(Cc5nncn5C)COC4)c3)n[nH]c12 (single isomer, unassigned) [Example C79]"
result = "121 nM"

[[record]]
compound = "Cn1cnnc1[C@@H](c1cccc(-c2n[nH]c3c(CN4CCNCC4)nc(C(F)(F)F)cc23)c1)C1CCC1"
result = "148 nM"

[[record]]
compound = "CN1CC[C@H](N(C)c2nc(C(F)(F)F)cc3c(-c4cccc([C@H](c5nncn5C)C5CCC5)c4)n[nH]c23)C1"
result = "240 nM"

[[record]]
compound = "Cn1cnnc1CC1(c2cccc(-c3n[nH]c4c(CN5CCOCC5)nc(C(F)(F)F)cc34)c2)COC1"
result = "91.8 nM"

[[record]]
compound = "Cn1cnnc1[C@@H](c1cccc(-c2n[nH]c3c(CN4CCC(F)(F)C4)nc(C(F)(F)F)cc23)c1)C1CCC1"
result = "278 nM"

[[record]]
compound = "C[C@H]1CN(Cc2nc(C(F)(F)F)cc3c(-c4cccc([C@H](c5nncn5C)C5CCC5)c4)n[nH]c23)CCO1"
result = "102 nM"

[[record]]
compound = "Cn1cnnc1CC1(c2cccc(-c3n[nH]c4c(CN[C@H]5CCOC5)nc(C(F)(F)F)cc34)c2)COC1"
result = "145 nM"

[[record]]
compound = "C[C@H]1CCCN(Cc2nc(C(F)(F)F)cc3c(-c4cccc([C@H](c5nncn5C)C5CCC5)c4)n[nH]c23)C1"
result = "47.7 nM"

[[record]]
compound = "CCNC(C)c1nc(C(F)(F)F)cc2c(-c3cccc(C4(Cc5nncn5C)COC4)c3)n[nH]c12 (single isomer, unassigned) [Example C83]"
result = "161 nM"

[[record]]
compound = "CC(c1nc(C(F)(F)F)cc2c(-c3cccc(C4(Cc5nncn5C)COC4)c3)n[nH]c12)N1C[C@@H](F)[C@H](F)C1 (single isomer, unassigned)"
result = "31.8 nM"

[[record]]
compound = "Cn1cnnc1[C@@H](c1cccc(-c2n[nH]c3c(CN[C@H]4CC[C@@H](O)C4)nc(C(F)(F)F)cc23)c1)C1CCC1"
result = "128 nM"

[[record]]
compound = "CC(NC1CNC1)c1nc(C(F)(F)F)cc2c(-c3cccc(C4(Cc5nncn5C)COC4)c3)n[nH]c12 (single isomer, unassigned) [Example C27]"
result = "71 nM"

[[record]]
compound = "Cn1cnnc1[C@@H](c1cccc(-c2n[nH]c3c(CN[C@H]4CCC[C@H]4O)nc(C(F)(F)F)cc23)c1)C1CCC1"
result = "146 nM"

[[record]]
compound = "Cn1cnnc1[C@@H](c1cccc(-c2n[nH]c3c(CN4C[C@@H](F)[C@H](F)C4)nc(C(F)(F)F)cc23)c1)C1CCC1"
result = "282 nM"

[[record]]
compound = "CC(CN)c1nc(C(F)(F)F)cc2c(-c3cccc(C4(Cc5nncn5C)COC4)c3)n[nH]c12 (single isomer, unassigned) [Example K7]"
result = "94.9 nM"

[[record]]
compound = "Cn1cnnc1[C@@H](c1cccc(-c2n[nH]c3c(CN4CC[C@H](O)C4)nc(C(F)(F)F)cc23)c1)C1CCC1"
result = "54.9 nM"

[[record]]
compound = "Cn1cnnc1CC1(c2cccc(-c3n[nH]c4c(CN5C[C@H](F)[C@@H](F)C5)nc(C(F)(F)F)cc34)c2)COC1"
result = "122 nM"

[[record]]
compound = "Cn1cnnc1[C@@H](c1cccc(-c2n[nH]c3c(CN[C@@H]4CCOC4)nc(C(F)(F)F)cc23)c1)C1CCC1"
result = "328 nM"

[[record]]
compound = "CNCc1nc(C(F)(F)F)cc2c(-c3cccc([C@H](c4nncn4C)C4CCC4)c3)n[nH]c12"
result = "349 nM"

